# target_or_test_system: human THRβ (Homo sapiens (Human))
# Sequence (P10828 whole entry): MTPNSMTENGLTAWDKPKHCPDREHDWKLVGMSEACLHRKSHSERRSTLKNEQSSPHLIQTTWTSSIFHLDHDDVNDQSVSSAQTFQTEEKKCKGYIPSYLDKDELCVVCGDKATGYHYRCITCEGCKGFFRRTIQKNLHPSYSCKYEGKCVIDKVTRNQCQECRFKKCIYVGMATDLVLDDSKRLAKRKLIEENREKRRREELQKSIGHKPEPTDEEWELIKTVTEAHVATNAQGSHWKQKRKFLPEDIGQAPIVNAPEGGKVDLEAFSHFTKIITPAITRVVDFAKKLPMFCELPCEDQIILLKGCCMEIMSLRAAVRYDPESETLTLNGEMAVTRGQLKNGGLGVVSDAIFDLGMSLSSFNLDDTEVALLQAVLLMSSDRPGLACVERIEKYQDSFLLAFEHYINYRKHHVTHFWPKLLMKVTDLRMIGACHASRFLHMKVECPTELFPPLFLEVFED
# assay_overview: THR reporter gene method, agonistic activity on THRβ (Huh7 cells, PGL4.26-DR4-Luc)
# Format: cell-based
# experimental_setup: (EC50 compound THRα/EC50 T3 THRα)/(EC50 compound THRβ/EC50 T3 THRβ)

mol: CC(C)n1c(=O)ccc2c1ccn2-c1c(Cl)cc(NC(=O)c2noc(=O)[nH]2)cc1Cl
β selectivity: 10.6

mol: Cc1c(O)ccc2c1c(Br)cn2-c1c(Cl)cc(NC(=O)c2noc(=O)[nH]2)cc1Cl
β selectivity: 2.1

mol: CC(C)n1c(=O)ccc2c1ccn2-c1c(Cl)cc(-c2n[nH]c(=O)[nH]c2=O)cc1Cl
β selectivity: 2.2

mol: N#Cc1nn(-c2cc(Cl)c(-n3ccc4c3ccc(=O)n4C3CCCCC3)c(Cl)c2)c(=O)[nH]c1=O
β selectivity: 33.5

mol: Cc1c(O)ccc2c1ccn2-c1c(Cl)cc(NC(=O)c2noc(=O)[nH]2)cc1Cl
β selectivity: 3.5

mol: N#Cc1nn(-c2cc(Cl)c(-n3ccc4c3ccc(=O)n4C3CC3)c(Cl)c2)c(=O)[nH]c1=O
β selectivity: 10.4

mol: CC(C)n1c(=O)ccc2c1ccn2-c1c(Cl)cc(-n2nc(C#N)c(=O)[nH]c2=O)cc1Cl
β selectivity: 15.9

mol: O=C(Nc1cc(Cl)c(-n2ccc3c2ccc(=O)n3C2CCOCC2)c(Cl)c1)c1noc(=O)[nH]1
β selectivity: 17.4
